experimental_system: Gal4 DNA binding domain fused to the LBD of LXRα in HEK293 cells (Homo sapiens (Human), UniProt Q13133)
Sequence (Q13133 209-447): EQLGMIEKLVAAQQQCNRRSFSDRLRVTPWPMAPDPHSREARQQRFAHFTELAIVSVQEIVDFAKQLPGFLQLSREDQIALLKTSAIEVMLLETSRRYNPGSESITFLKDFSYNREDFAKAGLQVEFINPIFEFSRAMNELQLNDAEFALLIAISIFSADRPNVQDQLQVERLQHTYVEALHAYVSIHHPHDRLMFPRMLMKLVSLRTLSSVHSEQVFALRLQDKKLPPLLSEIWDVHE
test_protocol: LXR luciferase transcriptional reporter gene assay, agonist mode, LXRα
Format: cell-based
recorded_conditions: agonist mode; read-out: Cell LXRα EC50
property_name: EC50 (µM)
Give the quantity in µM, number only.

compound=CC(C)[C@@H]1CN(c2ccc(F)c(S(C)(=O)=O)c2)CCN1c1ncc(CN2CC(O)C2)c(C(F)(F)F)n1 meas_value=2.84

Which value of EC50 has been reported for CS(=O)(=O)c1cccc(N2CCN(Cc3ccc(C(F)(F)F)cc3)[C@@H](c3ccccc3)C2)c1 (single isomer, unassigned) in the records?
2.99

Now this one: `CC(C)[C@H]1CN(c2ccc(CO)c(S(C)(=O)=O)c2)CCN1c1ncc(C(C)(C)O)c(C(F)(F)F)n1`
3.63

And then `Cc1nc(N2CCN(c3ccc(F)c(S(C)(=O)=O)c3)C[C@H]2C(C)(C)O)ccc1C(F)(F)F` , what is it?
13.6

Request: `CC(C)[C@@H]1CN(c2ccc(F)c(S(N)(=O)=O)c2)CCN1c1ccc(C(F)(F)F)cn1`
0.591

Please answer likewise for `CC(C)[C@@H]1CN(c2ccc(F)c(S(C)(=O)=O)c2)CCN1c1ccc(F)c(C(F)(F)F)n1`
0.307

Further, for `CCOC(=O)c1cnc(N2CCN(c3ccc(F)c(S(C)(=O)=O)c3)C[C@H]2C2CC2)nc1C(F)(F)F` ?
1.41

Do the same for Cc1nc(N2CCN(c3ccc(F)c(S(C)(=O)=O)c3)CC2CC(F)(F)F)ncc1C(C)(C)O (stereo not drawn) please
9.16

====

Cell LXRβ efficacy values by entry
experimental_system: Gal4 DNA binding domain fused to the LBD of LXRβ in HEK293 cells (Homo sapiens (Human))
Sequence (P55055 222-460 limits assumed): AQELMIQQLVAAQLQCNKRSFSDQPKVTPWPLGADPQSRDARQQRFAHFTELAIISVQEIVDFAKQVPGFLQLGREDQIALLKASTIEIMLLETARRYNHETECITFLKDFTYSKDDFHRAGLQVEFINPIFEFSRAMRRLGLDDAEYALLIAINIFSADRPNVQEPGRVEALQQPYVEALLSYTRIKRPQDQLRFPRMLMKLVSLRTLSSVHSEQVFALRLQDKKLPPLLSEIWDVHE
test_protocol: cell-based
Assay type: cell-based

Worked cases, answers included:
molecule=CC(C)[C@@H]1CN(c2cccc(S(C)(=O)=O)c2)CCN1c1nccc(OC(F)F)n1 meas_value="177 (103) %"
molecule=CCOC(=O)CCN(C)C(=O)c1cnc(N2CCN(c3ccc(F)c(S(C)(=O)=O)c3)C[C@H]2C(C)C)nc1C(F)(F)F meas_value="186 (98) %"
molecule=CC(C)[C@@H]1CN(c2ccc(F)c(S(C)(=O)=O)c2)CCN1c1ncc(C(N)=O)c(C(F)(F)F)n1 meas_value="439 (97) %"

Continue with the next molecule.
Lab note: need Cell LXRβ efficacy for `CC(C)(O)[C@@H]1CN(c2cccc(S(C)(=O)=O)c2)CCN1c1nccc(C(F)(F)F)n1` on Gal4 DNA binding domain fused to the LBD of LXRβ in HEK293 cells (Homo sapiens (Human)), anyone have it?
9 (64) %

====

Measured FRET LXRα efficacy, listed per entry for reference.
experimental_system: UniProtKB Q13133
test_protocol: Human LXRα coactivator recruitment FRET assay, agonist mode
Format: biochemical
recorded_conditions: agonist mode
A complete answer gives the number followed by the unit.

molecule="CS(=O)(=O)c1cccc(N2CCN(C[C@H]3CC[C@@H](C(F)(F)F)CC3)[C@@H](c3ccccc3)C2)c1 (single isomer, unassigned) [48-31]" meas_value=56%

What value of FRET LXRα efficacy has been recorded for this entry: CC(C)[C@@H]1CN(c2ccc(C(F)(F)F)c(S(C)(=O)=O)c2)CCN1C(=O)OC(C)(C)C [Cpd No 3-2]
54%

Next molecule up: Cc1nc(C(F)(F)F)ccc1CN1CCN(c2cccc(S(C)(=O)=O)c2)CC1c1ccccc1 (stereo not drawn) [46-47]
51%

Another molecule to check: CS(=O)(=O)c1cccc(N2CCN(Cc3ccc(C(F)(F)F)c(F)c3)[C@@H](c3ccccc3)C2)c1 (single isomer, unassigned) [46-26]
59%

# iterate: CS(=O)(=O)c1cccc(N2CCN(Cc3ccc(C(F)(F)F)c(Cl)c3)[C@@H](Cc3ccccc3)C2)c1 [Cpd No 45-1]
39%

Can you handle CS(=O)(=O)c1cc(N2CCN(C[C@H]3CC[C@H](C(F)(F)F)CC3)[C@@H](c3ccccc3)C2)ccc1C(N)=O (single isomer, unassigned) [17-37] next?
53%

Attribution: patent US10144715B2
